Ref: the Human Domainome abundance scans (Beltran et al. 2025)

B1: MEF2-activating motif and SAP domain-containing transcriptional regulator, residues 170 to 204; numbered along this chain, Q6ZN01 (parent)
chain: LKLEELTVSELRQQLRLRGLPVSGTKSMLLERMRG

Variants of: B1
Test: abundance fitness (aPCA) (normalised: wild type 0, dead -1); higher = more abundant; growth selection in yeast, the domain comes from the species named
Details: Homo sapiens
Each entry falls in a class defined on abundance fitness; the bands are low-valued = under -0.3, mid-valued = from -0.3 up to -0.1, high-valued = -0.1 and over

* R32Q | mid-valued
* G19P | low-valued
* M33G | low-valued
* M28L | mid-valued
* G19H | mid-valued
* E31S | mid-valued
* L30Q | high-valued
* E10G | low-valued
* M28A | high-valued
* S23D | high-valued
* P21M | low-valued
* M28T | high-valued
* M28N | low-valued
* L30C | mid-valued
* L1E | high-valued
* R32M | low-valued
